Target: HSV-1 ribonucleotide reductase (Human herpesvirus 1)
Construct: HSV-1 ribonucleotide reductase (partially purified) was obtained from quiescent BHK-21/C13 cells infected with strain F HSV-1 virus; made in house; host or cells: quiescent BHK-21/C13 cells infected with HSV-1 strain F (10 pfu/cell); partially purified
Sequence (P08543 whole entry): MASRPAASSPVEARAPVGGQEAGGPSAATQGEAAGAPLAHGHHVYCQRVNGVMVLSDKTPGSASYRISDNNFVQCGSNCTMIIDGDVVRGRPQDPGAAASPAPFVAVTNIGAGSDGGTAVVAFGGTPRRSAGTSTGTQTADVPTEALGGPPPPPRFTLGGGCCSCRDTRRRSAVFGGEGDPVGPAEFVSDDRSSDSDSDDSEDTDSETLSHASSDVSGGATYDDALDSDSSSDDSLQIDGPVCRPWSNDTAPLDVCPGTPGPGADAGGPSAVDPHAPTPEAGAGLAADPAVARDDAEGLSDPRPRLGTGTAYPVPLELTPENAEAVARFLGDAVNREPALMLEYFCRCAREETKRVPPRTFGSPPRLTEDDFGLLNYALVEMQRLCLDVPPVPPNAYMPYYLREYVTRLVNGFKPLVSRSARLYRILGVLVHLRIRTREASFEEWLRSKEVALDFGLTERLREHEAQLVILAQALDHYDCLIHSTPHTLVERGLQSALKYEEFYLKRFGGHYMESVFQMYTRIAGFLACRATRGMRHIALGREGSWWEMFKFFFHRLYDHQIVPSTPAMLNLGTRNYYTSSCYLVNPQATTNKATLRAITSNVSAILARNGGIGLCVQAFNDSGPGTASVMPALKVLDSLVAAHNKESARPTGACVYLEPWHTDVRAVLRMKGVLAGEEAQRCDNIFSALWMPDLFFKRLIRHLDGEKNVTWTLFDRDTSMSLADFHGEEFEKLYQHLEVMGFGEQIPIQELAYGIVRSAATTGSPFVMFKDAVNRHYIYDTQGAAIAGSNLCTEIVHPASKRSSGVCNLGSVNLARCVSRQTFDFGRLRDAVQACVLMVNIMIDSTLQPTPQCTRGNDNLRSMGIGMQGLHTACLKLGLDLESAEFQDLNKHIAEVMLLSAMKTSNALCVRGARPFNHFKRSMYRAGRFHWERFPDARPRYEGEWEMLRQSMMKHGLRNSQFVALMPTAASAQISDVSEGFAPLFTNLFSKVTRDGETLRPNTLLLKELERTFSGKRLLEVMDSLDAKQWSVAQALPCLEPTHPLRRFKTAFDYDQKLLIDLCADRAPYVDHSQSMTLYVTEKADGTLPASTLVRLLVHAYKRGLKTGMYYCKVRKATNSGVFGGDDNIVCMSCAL
Assay: biochemical
Settings: IC50, concentration producing 50% of the maximal inhibition of enzyme activity; partially purified enzyme; mean of four assays
Description: HSV-1 ribonucleotide reductase (partially purified) was obtained from quiescent BHK-21/C13 cells infected with strain F HSV-1 virus at 10 plaque forming units/cell as described by E. A. Cohen et at., J. Gem Virol., 66, 733 (1985). By following the procedure described by P. Gaudreau et at., J. Biol, Chem., 262, 12413 (1987), the assay results listed in the following table were obtained. […]
Readings of IC50 for the listed compounds
Returns: string containing the number followed by the unit.

Reference set, count: 5
CC(C)C[C@H](NC(=O)[C@H](CC(=O)O)NC(=O)[C@H](CC(=O)N1CCCC1)NC(=O)CCC(=O)NC1CCCCC1)C(=O)O : 22 µM
CCC(CC)NC(=O)c1ccccc1C(=O)N[C@@H](CC(=O)N1CCCC1)C(=O)N[C@@H](CC(=O)O)C(=O)N[C@@H](CC(C)C)C(=O)O : 6.5 µM
CCC(CC)NC(=O)CCC(=O)N[C@@H](CC(=O)C1CCCC1)C(=O)N[C@@H](CC(=O)O)C(=O)N[C@@H](CC(C)C)C(=O)O : 3.4 µM
CCC(CC)NC(=O)CCC(=O)N[C@@H](CC(=O)N1CCCC1)C(=O)N[C@@H](CC(=O)O)C(=O)N[C@@H](CC(C)C)C(=O)O : 2.9 µM
CCC(CC)NC(=O)CCC(=O)N[C@@H](CC(=O)N1CCC1)C(=O)N[C@@H](CC(=O)O)C(=O)N[C@@H](CC(C)C)C(=O)O : 9.1 µM

Now consider a different compound.
Consider the compound shown here: `CCCCCC[C@H](C)OC(=O)C[C@H](NC(=O)CCC(=O)NC(CC)CC)C(=O)N[C@H](C(=O)N[C@@H](CC(C)C)C(=O)O)C1(C(=O)O)CCC1` What is its recorded IC50?
4.4 µM

Data provenance is patent US5484771A.
